- TARGET ENTITY: T1, natriuretic peptide receptor-B (human)
- T1 chain: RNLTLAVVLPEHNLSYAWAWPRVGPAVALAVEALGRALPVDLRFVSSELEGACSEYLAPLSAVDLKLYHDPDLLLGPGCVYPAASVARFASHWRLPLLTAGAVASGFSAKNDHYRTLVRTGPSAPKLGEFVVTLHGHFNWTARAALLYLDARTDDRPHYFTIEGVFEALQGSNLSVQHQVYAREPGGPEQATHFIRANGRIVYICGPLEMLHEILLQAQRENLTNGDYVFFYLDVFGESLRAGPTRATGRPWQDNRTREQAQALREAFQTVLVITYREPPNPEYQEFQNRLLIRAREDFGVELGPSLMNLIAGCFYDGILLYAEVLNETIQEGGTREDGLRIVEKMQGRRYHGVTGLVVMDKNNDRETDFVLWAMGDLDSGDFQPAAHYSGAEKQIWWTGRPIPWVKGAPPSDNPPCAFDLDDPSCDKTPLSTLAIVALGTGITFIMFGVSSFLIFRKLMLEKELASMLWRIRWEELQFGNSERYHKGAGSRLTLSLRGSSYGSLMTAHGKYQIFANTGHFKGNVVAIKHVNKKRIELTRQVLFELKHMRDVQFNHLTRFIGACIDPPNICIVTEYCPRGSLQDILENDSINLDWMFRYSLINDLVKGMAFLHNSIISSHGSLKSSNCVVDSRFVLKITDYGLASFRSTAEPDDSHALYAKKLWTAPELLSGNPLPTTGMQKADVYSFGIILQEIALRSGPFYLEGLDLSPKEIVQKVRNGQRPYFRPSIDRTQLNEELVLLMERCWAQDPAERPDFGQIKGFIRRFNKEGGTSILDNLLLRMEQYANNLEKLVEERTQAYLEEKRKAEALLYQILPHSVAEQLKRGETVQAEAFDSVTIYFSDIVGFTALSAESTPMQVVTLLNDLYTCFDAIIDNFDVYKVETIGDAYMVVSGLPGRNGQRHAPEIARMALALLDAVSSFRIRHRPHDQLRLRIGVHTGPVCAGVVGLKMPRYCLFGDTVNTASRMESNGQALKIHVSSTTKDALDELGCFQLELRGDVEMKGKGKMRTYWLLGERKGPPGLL
- EXPERIMENT: cell-based or functional assay
Numbered stars: 1 amine (or outer) side, 2 acyl side, 3 side chain; on linkers, the order of the positions; unused ones are H or OH. Square brackets hold non-standard residues; d marks the D form. Ends that are not written are not given here. Pro(trans-4-NH2) = O=C([C@@H]1C[C@@H](N[*:3])CN1[*:1])[*:2]; Sni = (S)-nipecotic acid, O=C([C@H]1CCCN([*:1])C1)[*:2]; Gly(2-thienyl) = N[C@H](C(=O)O)c1cccs1; Hyp = O=C(O)[C@@H]1C[C@@H](O)CN1; NMeL = CN[C@@H](CC(C)C)C(=O)O; Chg = N[C@H](C(=O)O)C1CCCCC1; Api = NC1(C(=O)O)CCNCC1; leu = not defined here; Occ = octanoic acid
Assignment: determine reported EC50 group, cGMP in GTM-3 cells for the given binders.

Q: Form field: reported EC50 group, cGMP in GTM-3 cells of [Occ][dA]F[dL]L[Hyp][NMeL][Gly(2-thienyl)]RI-NH2 [JAL-1557]
Ans: ≤ 15 µM

Q: What EC50 group, cGMP in GTM-3 cells value was documented for this binder, [Occ][Sni]F[leu]L[Hyp][Chg]DRI-NH2 (reading uncertain; also: printed as Occ-Sni-Phe-leu-Leu-Hyp-Chg-Asp-Arg-Ile-NH2) [JAL-1627] ?
Ans: ≤ 5 µM

Q: Need EC50 group, cGMP in GTM-3 cells, item [Occ][Sni]F[Api]L[Pro(trans-4-NH2)][NMeL]DPI-NH2 [JAL-1561]
Ans: ≤ 1 µM
